# Test system: Escherichia coli TOP10;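 also: peptides expressed intracellularly from a pBAD plasmid library in pooled LB shake-flask culture, induced with 0.3% L-arabinose, DNA abundance read by NGS, three biological replicates, DESeq2 with apeglm shrinkage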
# run.description: shrunken log2 fold change of peptide-encoding DNA abundance (4.5 h post-induction vs induction); higher = less antimicrobial activity (less host growth inhibition)
# settings: time post-induction: 4.5 h; library: site-saturation at positions 5, 18, 19, 20
Some sequences, each annotated with its measured shrunken log2 fold change.

Use these answered entries as a reference point.
| record.sequence | quantity.kind | test.result |
| --- | --- | --- |
| RRIRERPPRLPRPRPRPNCSPRP | shrunken log2 fold change | -0.202 |
| RRIRSRPPRLPRPRPRPHHVPRP | shrunken log2 fold change | -0.243 |
| RRIRQRPPRLPRPRPRPMGDPRP | shrunken log2 fold change | 0.0563 |
| RRIRGRPPRLPRPRPRPCEYPRP | shrunken log2 fold change | 0.0669 |
| RRIRQRPPRLPRPRPRPYQCPRP | shrunken log2 fold change | -0.263 |
| RRIRRRPPRLPRPRPRPMHQPRP | shrunken log2 fold change | -0.105 |
| RRIRRRPPRLPRPRPRPTPYPRP | shrunken log2 fold change | 0.545 |
| RRIRNRPPRLPRPRPRPTVQPRP | shrunken log2 fold change | -0.179 |
| RRIRDRPPRLPRPRPRPLECPRP | shrunken log2 fold change | 0.0215 |
| RRIRKRPPRLPRPRPRPRDAPRP | shrunken log2 fold change | 0.558 |

get_value(item= RRIRERPPRLPRPRPRPMNRPRP , readout=shrunken log2 fold change) returns -0.401

get_value(item= RRIRHRPPRLPRPRPRPLSPPRP , readout=shrunken log2 fold change) returns -0.0711

get_value(item= RRIRCRPPRLPRPRPRPREFPRP , readout=shrunken log2 fold change) returns 0.339

get_value(item= RRIRERPPRLPRPRPRPHRWPRP , readout=shrunken log2 fold change) returns 0.0978

get_value(item= RRIRVRPPRLPRPRPRPYAGPRP , readout=shrunken log2 fold change) returns 0.0438

Source of measurements: the supplement of paper PMC9112550
